Recorded cytotoxicity at 70.5 h, one value per entry.
assay: Human HepG2 cell viability assay in 384 well format; assay type: toxicity, cell-based; set-up: dose 125 nL, time 70.5 hour; concentration not given beside the values; conditions: HepG2 cells, read-out: Inhibition
READOUT_NAME: cytotoxicity at 70.5 h (%)

• Cc1c[nH]nc1C1CCCCN1C(=O)CCn1nccc1C (stereo unspecified) = 11.5
• CN1CCC2(CCCN(S(=O)(=O)c3ccc(-c4cnco4)s3)C2)C1 (stereo unspecified) = -6.76
• Cc1ncsc1C(=O)N[C@@H](Cc1ccccc1)C(N)=O = -1.24
• COCC(=O)N1CCCCC1c1nc(N(C)C)ncc1-c1cc(C)no1 (stereo unspecified) = 21.1
• Cc1noc(C)c1CN1CCN(c2ccnc(-c3ccccc3)n2)CC1 = 26.5
• CCn1c(C)cc(C(=O)N2CCCC(c3nc(C)no3)C2)c1C (stereo unspecified) = -3.95
• CN(C)c1nc2c(c(=O)[nH]1)CCN(C(=O)c1ccc(=O)[nH]c1)C2 = -3.2
• Cc1nnc(N2CCC(CN(C)C(C)C)CC2)c(C#N)c1C = 20.7
• CCn1c(CN2CCCC2)nnc1C1CCN(Cc2ccc(C)o2)CC1 = -5.38
• CN(C(=O)C1CCC1)C1CCN(c2ccccc2Cl)C1=O (stereo unspecified) = -26.5
• Cc1noc(C)c1C(C)NC(=O)N1CCC(NC(=O)c2ccsc2)CC1 (stereo unspecified) = -6.79
• CCCc1noc(CN2CCC(N(C)Cc3nnc(C4CC4)o3)C2)n1 (stereo unspecified) = 4.17
• CCc1c(C)nn(CCNC(=O)c2cc(C3CC3)n[nH]2)c1C = -2.41
• O=C(NCc1ccc(-n2cncn2)nc1)c1cnccn1 = 7.67
• COc1ccc(C)cc1C(C)NC(=O)Cn1ccc(=O)n(C)c1=O (stereo unspecified) = -1.39
• CNC(=O)C1(c2cnccn2)CCCN1C(=O)c1cccnc1OC (stereo unspecified) = -9.36
• CC(C)CC(C(=O)N1CCCSCC1)N1CCCCC1=O (stereo unspecified) = -3.18
• CCC(C)N(CC)C(=O)c1ccc2[nH]nnc2c1 (stereo unspecified) = -6.36
• O=C(CCc1ccccc1)NCC(O)c1c(F)cccc1F (stereo unspecified) = -3.12
• CC(C)(C)n1ncc(NCC(O)c2ccccc2)c(Cl)c1=O (stereo unspecified) = 25.2
• CCC(=O)N1CCCC(c2nc(-c3cccnn3)no2)C1 (stereo unspecified) = -0.455
• CN(CC(=O)Nc1ccccc1)C(=O)CN(C)c1ccc(Cl)cn1 = -10.4
• CC[C@@H]1N(Cc2ccsc2)CCC[C@]12CCC(=O)N2CCOC = -17.5
• CCc1nc(C2CCCN(C(=O)c3ccccc3Cl)C2)no1 (stereo unspecified) = -1.75
• CCC(=O)N1CC[C@@H]2[C@H](CC1)N(Cc1cccc(C)n1)CCS2(=O)=O = 1.51
• CC(C)NC(=O)N1C[C@H](OCc2cccnc2)[C@H]2COC[C@H]21 = 0.936
• O=C1Nc2ccccc2CN(C/C=C/c2ccccc2)C12CCNC2 (stereo unspecified) = 2.42
• Cc1cnc(C(=O)N2CCN(C(=O)C(C)C)[C@@H]3CS(=O)(=O)C[C@@H]32)cn1 = -6.02
• Cc1cn2c(=O)c(-c3ccnc(NC4CCOCC4)n3)cnc2s1 = -4.12
• CCC[C@@H]1CN(C(=O)c2c(F)ccc(OC)c2F)C[C@H]1C(=O)O = -0.545
• Cc1nnsc1C(=O)NCCNS(=O)(=O)c1cccs1 = 6.87
• CCn1cc(CNC(=O)C(C)C)cn1 = 0.0963
• Cc1nc(CNC(=O)N2CCCC(c3ncc[nH]3)C2)sc1C (stereo unspecified) = -5.05
• CO[C@H]1CCN(c2nnc(C)s2)C[C@@H]1Cc1ccccc1 = -4.37
• Cn1cc(CN2CCC(Cn3cc(-c4ccccc4)nn3)CC2)cn1 = -4.28
• CCc1cc(C(=O)N2CCC(O)(Cn3ccc4ccncc43)CC2)no1 = -5.47
• COc1cc(N2CCN(Cc3ccc(C)o3)C(CCO)C2)nc(N)n1 (stereo unspecified) = -4.16
• CCc1nc(C)c(C(=O)NCCNc2ncccn2)s1 = -6.37
• CC(C)CNC(=O)CNC(=O)NC(c1nccs1)C1CC1 (stereo unspecified) = 4.02
• CCn1cc(CN2C[C@H]3CC[C@@H]2CN(C(=O)c2ccncc2)C3)cn1 = 21
• CCn1c(CNCC2CCCN2c2cccnn2)nc2ccccc21 (stereo unspecified) = -9.03
• O=C(N[C@@H]1CN(Cc2cccs2)[C@@H]2CCCO[C@@H]21)c1cscn1 = -9.16
• COCCc1noc(Cn2c(=O)[nH]c3ccccc32)n1 = -10.2
• O=C(c1cn(CCN2CCCCC2)nn1)N1CCCCO1 = 11
• Cc1ncc(S(C)(=O)=O)c(N(C)CCCc2cnn(C)c2)n1 = -3.73
• Cc1cc(-c2cnn(CCNC(=O)c3cnn(C)c3)c2C2CC2)on1 = -2.33

====

Recorded measurements of cytotoxicity at 70.5 h, one per entry
assay: Human HepG2 cell viability assay in 384 well format; format: toxicity, cell-based; parameters: dose 125 nL, time 70.5 hour; concentration not given beside the values; details: HepG2 cells, read-out: Inhibition
READOUT_NAME: cytotoxicity at 70.5 h (%)

* Cc1noc(C2CCCN(C(=O)c3cccc(Cl)c3)C2)n1 (stereo unspecified) | -0.713
* O=C(Cc1ccc(-n2cccn2)cc1)N1CCN2CCCCC2C1 (stereo unspecified) | 3.24
* CCn1cc(NC(=O)NC(CO)Cc2c[nH]c3ccccc23)cn1 (stereo unspecified) | -4.69
* OCc1ccc(CN2CCC(n3cc(-c4ccc(F)cc4)nn3)CC2)o1 | -8.09
* Cc1ccccc1C(=O)NCC(=O)NCc1ccccn1 | 15.5
* O=C(NCC(O)CO)Nc1cc(Br)ccc1F (stereo unspecified) | -1.48
* CC(C)(C)c1cc(C(=O)NCCn2nc3ccccn3c2=O)[nH]n1 | -4.69
* CN1CC(C(=O)N2CCC(Oc3ccccc3Cl)CC2)CC1=O (stereo unspecified) | -1.46
* CC[C@@H]1N(Cc2ccc(C)s2)CCC[C@]12CCC(=O)N2C | -11.2
* c1cnc(NC[C@H]2OC[C@@H]3CCN(Cc4nccs4)C[C@@H]32)nc1 | 21.4
* COc1cccc2c1ccn2CC(=O)Nc1nc[nH]n1 | -11.8

====

Below: a set of entries, each annotated with reported cytotoxicity at 70.5 h.
experiment: Human HepG2 cell viability assay in 384 well format; assay type: toxicity, cell-based; design: dose 125 nL, time 70.5 hour; concentration not given beside the values; settings: HepG2 cells, read-out: Inhibition
READOUT_NAME: cytotoxicity at 70.5 h (%)

• Cc1ccsc1CN1CC2(CCN(C(=O)C3CC3)CC2)CC1C(=O)O (centres undefined) = 10.8
• Cc1cc(C)n(Cc2cccc(C(=O)NCCSCC(C)(C)O)c2)n1 = -3.16
• Cc1nnc2n1CCN(C(=O)c1cnc(C3CC3)s1)C2 = -2.96
• CCOC(=O)c1coc(N2CCN(Cc3ccc(C)cc3)C(=O)C2)n1 = 0.779
• Cc1cnn(CCC(=O)Nc2cccnc2N2CCC(CO)CC2)c1 = -1.8
• CS(=O)(=O)CCCSc1n[nH]c(-c2ccc3c(c2)CCC3)n1 = -1.26
• CN(Cc1n[nH]c2c1CCCC2)c1nc(C2CC2)nc2c1CCNCC2 = -1.06
• O=C(c1cnccn1)N1CCOC2(CCCN(c3ncccc3F)C2)C1 (centres undefined) = -16.1
• Cc1cccc2sc(NC(=O)CN3CCCC(O)(CO)C3)nc12 (centres undefined) = 11
• CC(C)(C)C(=O)NCCc1ccn(-c2ccccc2)n1 = -17.1
• O=C(NCC1CC1)C1=NOC2(CCN(Cc3ccc(Cl)c(F)c3)C2)C1 (centres undefined) = -7.64
• COc1ncccc1NC(=O)NC1CCOc2ccccc21 (centres undefined) = -14.2
• COC(=O)CC(NC(=O)c1cccc(CS(C)(=O)=O)c1)c1cccs1 (centres undefined) = -4.71
• Cc1ccccc1NC1CCN(C(=O)CCc2ccco2)CC1 = 1.41
• COc1cc(N(C)Cc2cc(C(C)(C)C)n[nH]2)ncn1 = 17.2
• COc1cc(OC)cc(-n2ccnc2-c2cc3n(n2)CCNC3)c1 = 19.3
• CCN(Cc1ccc2c(c1)OCO2)C(=O)Cn1cccnc1=O = -0.305
• COC(=O)C(NC(=O)C1CCC1)c1cc(F)ccc1F (centres undefined) = -7.83
• N[C@@H](Cc1c[nH]cn1)C(=O)N1CCC(Oc2ccc(F)cc2)CC1 = -4.52
• CS(=O)(=O)NC[C@]12COC[C@H]1CN(C(=O)N1CCCC1)C2 = -4.24
• CN(C)C(=O)c1cccc(NC(=O)N(CCO)Cc2ccsc2)c1 = -4.45
• c1cnc(N2CCC3(COCc4cnc(N5CCOCC5)nc43)C2)nc1 (centres undefined) = -16.6
• COC(=O)CC(c1cccc(OC(F)F)c1)c1oc(C)cc(=O)c1O (centres undefined) = 7.18
• N#Cc1c(Cl)nsc1NCc1cccnc1OC1CCCC1 = -94.1
